The measured values listed here are drawn from patent US11981658B2.

- TARGET SYSTEM: EGFR Del19/C797S (Homo sapiens, UniProt P00533, C797S/DEL746-750)
- Sequence (P00533 with tags, fused parts or gaps DEL746-750/C797S): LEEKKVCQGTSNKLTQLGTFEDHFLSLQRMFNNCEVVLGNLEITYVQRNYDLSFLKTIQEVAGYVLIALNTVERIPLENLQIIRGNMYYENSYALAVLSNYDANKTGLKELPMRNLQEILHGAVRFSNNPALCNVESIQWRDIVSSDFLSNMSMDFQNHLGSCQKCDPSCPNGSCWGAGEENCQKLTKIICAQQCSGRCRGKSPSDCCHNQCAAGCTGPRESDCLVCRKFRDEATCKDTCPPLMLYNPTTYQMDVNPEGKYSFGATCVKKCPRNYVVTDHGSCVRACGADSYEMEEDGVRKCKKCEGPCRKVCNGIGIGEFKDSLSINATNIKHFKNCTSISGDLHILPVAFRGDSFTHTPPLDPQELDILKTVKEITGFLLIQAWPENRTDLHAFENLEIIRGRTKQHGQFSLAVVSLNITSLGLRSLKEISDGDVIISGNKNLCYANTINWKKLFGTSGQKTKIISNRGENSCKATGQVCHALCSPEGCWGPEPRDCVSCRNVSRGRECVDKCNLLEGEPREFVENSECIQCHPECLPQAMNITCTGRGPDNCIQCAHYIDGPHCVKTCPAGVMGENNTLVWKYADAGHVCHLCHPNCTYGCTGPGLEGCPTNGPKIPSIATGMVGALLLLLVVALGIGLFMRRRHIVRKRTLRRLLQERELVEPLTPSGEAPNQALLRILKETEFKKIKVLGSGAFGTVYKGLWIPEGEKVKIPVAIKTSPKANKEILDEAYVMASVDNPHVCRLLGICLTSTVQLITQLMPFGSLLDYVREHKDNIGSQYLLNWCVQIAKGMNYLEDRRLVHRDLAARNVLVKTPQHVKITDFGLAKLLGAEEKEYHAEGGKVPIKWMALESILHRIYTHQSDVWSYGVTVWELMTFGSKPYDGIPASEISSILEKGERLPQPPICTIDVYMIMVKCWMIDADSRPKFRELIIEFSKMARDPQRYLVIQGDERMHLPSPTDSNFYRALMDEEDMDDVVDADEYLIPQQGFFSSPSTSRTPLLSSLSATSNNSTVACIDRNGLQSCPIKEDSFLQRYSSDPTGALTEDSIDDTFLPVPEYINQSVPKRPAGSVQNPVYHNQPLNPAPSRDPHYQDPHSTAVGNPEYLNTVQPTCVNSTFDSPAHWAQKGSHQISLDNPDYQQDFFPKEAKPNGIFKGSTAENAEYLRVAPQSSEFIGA
- RUN DESCRIPTION: Biochemical EGFR kinase inhibition assay (Lance Ultra TR-FRET), double mutant del19/C797S
- TEST CONTEXT: IC50 Del19/C797S (nM), 100 μM ATP
QUANTITY NAME: IC50
Provide a numeric answer, followed by its unit.

* CN(C)CC1(O)CCN(c2cc(Nc3ccnc(-c4cnn(S(=O)(=O)C5CC5)c4)n3)ncc2C#Cc2cnn(C(F)(F)F)c2)CC1 [Example 317] | 245 nM
* CN(C)CC1(C)CCN(c2cc(Nc3ccnc(-c4cnn(S(=O)(=O)C5CC5)c4)n3)ncc2C#Cc2cnn(C)c2)CC1 [Example 296] | 0.6 nM

Task: Which IC50 reading was recorded for the molecule CN(C)C[C@H]1CC[C@@H](Nc2cc(Nc3ccnc(-c4cnn(S(=O)(=O)C5CC5)c4)n3)ncc2C#Cc2cnn(C(F)(F)F)c2)CC1 [Example 314] ?
Result: 9.9 nM
